Test: Growth inhibition of human U251 cells after 48 hrs by MTT assay
Assay type: functional, cell-based
Conditions: U-251, 48 h
Can you tell me IC50 for the items I'm about to list?
Write down the numeric answer in µM and omit the unit.

Data request: For the compound C[C@@H]1O[C@@H](O[C@H]2C(O[C@H]3CC[C@]4(C)[C@H]5CC=C6[C@@H]7CC(C)(C)CC[C@]7(C(=O)OCCCCOc7no[n+]([O-])c7S(=O)(=O)c7ccccc7)CC[C@@]6(C)[C@]5(C)CC[C@H]4C3(C)C)OC[C@H](O[C@@H]3O[C@H](CO)[C@@H](O)[C@H](O)[C@H]3O)[C@@H]2O)[C@H](O)[C@H](O)[C@H]1O (single isomer, unassigned) , give its measured IC50 value.
Data returned: 2.1

Data request: For the compound C[C@@H]1O[C@@H](O[C@H]2C(O[C@H]3CC[C@]4(C)[C@H]5CC=C6[C@@H]7CC(C)(C)CC[C@]7(C(=O)OC/C=C/COc7no[n+]([O-])c7S(=O)(=O)c7ccccc7)CC[C@@]6(C)[C@]5(C)CC[C@H]4C3(C)C)OC[C@H](O[C@@H]3O[C@H](CO)[C@@H](O)[C@H](O)[C@H]3O)[C@@H]2O)[C@H](O)[C@H](O)[C@H]1O (single isomer, unassigned) , give its measured IC50 value.
Data returned: 3.1

Data request: For the compound CC(CCOc1no[n+]([O-])c1S(=O)(=O)c1ccccc1)OC(=O)[C@]12CCC(C)(C)C[C@H]1C1=CC[C@@H]3[C@@]4(C)CC[C@H](O[C@@H]5OC[C@H](O[C@@H]6O[C@H](CO)[C@@H](O)[C@H](O)[C@H]6O)[C@H](O)[C@H]5O[C@@H]5O[C@@H](C)[C@H](O)[C@@H](O)[C@H]5O)C(C)(C)[C@@H]4CC[C@@]3(C)[C@]1(C)CC2 (some centres undefined) , give its measured IC50 value.
Data returned: 2.3

Data request: For the compound C[C@@H]1O[C@@H](O[C@H]2C(O[C@H]3CC[C@]4(C)[C@H]5CC=C6[C@@H]7CC(C)(C)CC[C@]7(C(=O)O)CC[C@@]6(C)[C@]5(C)CC[C@H]4C3(C)C)OC[C@H](O[C@@H]3O[C@H](CO)[C@@H](O)[C@H](O)[C@H]3O)[C@@H]2O)[C@H](O)[C@H](O)[C@H]1O (single isomer, unassigned) [HEDERACOLCHISIDE A1] , give its measured IC50 value.
Data returned: 2.2
